Give measured IC50 for each item. Keep answers brief.
- Test system: FOXM1^A2 mRNA and FOXM1^BC mRNA
- assay_protocol: Splicing assay (FOXM1), qPCR of isoform mRNAs
- Format: cell-based
- condition_context: Homo sapiens, A-375, 24 h, A-375 cells; 24 hours; table does not say EC50 or IC50; read-out: FOXM1

Items follow; give IC50 for each.
1. COc1cc(-c2ccc(-c3ccc(N(C)[C@H]4C[C@]5(C)CC[C@](C)(C4)N5)nn3)c(O)c2)cnn1
2. CC1(C)CC(N(c2ccc(-c3ccc(-c4cn[nH]c4)cc3O)nn2)C2CC2)CC(C)(C)N1
3. CN(c1ccc(-c2ccc(-c3cn[nH]c3)cc2O)nn1)[C@H]1C[C@]2(C)CC[C@](C)(C1)N2
4. CN(c1ccc(-c2ccc(-c3cn[nH]c3)cc2O)nn1)[C@@H]1C[C@H]2CCC[C@@H](C1)N2

Result block:
["1 to 10 nM", "< 1 nM", "1 to 10 nM", "< 1 nM"]

Count: 4. Required value per item: IC50.
1. CN(c1ccc(-c2ccc(-c3cn[nH]c3)cc2O)nn1)[C@@H]1C[C@H]2CC[C@@H](C1)N2
2. CN(c1ccc(-c2cc(F)c(-c3cn[nH]c3)cc2O)nn1)[C@H]1C[C@]2(C)CC[C@](C)(C1)N2
3. CN(c1ccc(-c2ccc(-n3nccn3)cc2O)nn1)[C@@H]1C[C@H]2CC[C@@H](C1)N2
4. CN(c1ccc(-c2ccc(-c3ccn(C)c(=O)c3)cc2O)nn1)[C@H]1C[C@]2(C)CC[C@](C)(C1)N2

Result block:
1 to 10 nM
< 1 nM
11 to 100 nM
1 to 10 nM

---

- Tested on: A-673 cells
- assay_protocol: Cell viability, crystal violet staining
- Assay type: cell-based
- condition_context: Homo sapiens, A673, read-out: A-673 cell viability (IC50)
value_type: IC50

The examples below pair each entry with its known result.
CN(c1ccc(-c2ccc(-c3cc[nH]c(=O)c3)cc2O)nn1)[C@H]1C[C@]2(C)CCC[C@](C)(C1)N2 [compound 306]; < 3 nM
CN(c1ccc(-c2cc(F)c(-c3cn[nH]c3)cc2O)nn1)[C@H]1C[C@]2(C)CC[C@](C)(C1)N2 [compound 167]; < 0.5 nM
CN(c1ccc(-c2ccc(-c3ccn(C)c(=O)c3)cc2O)nn1)[C@H]1C[C@]2(C)CCC[C@](C)(C1)N2 [compound 259]; < 1 nM
CN(c1ccc(-c2ccc(-c3ccn(C)c(=O)c3)cc2O)nn1)[C@H]1C[C@]2(C)CC[C@](C)(C1)N2 [compound 168]; ≤ 5 nM
CN(c1ccc(-c2cc(F)c(-c3ccn(C)c(=O)c3)cc2O)nn1)[C@H]1C[C@]2(C)CC[C@](C)(C1)N2 [compound 169]; ≤ 5 nM
CN(c1ccc(-c2ccc(-c3cn[nH]c3)cc2O)nn1)[C@H]1C[C@]2(C)CC[C@](C)(C1)N2 [compound 151]; ≤ 5 nM
CN(c1ccc(-c2cc(F)c(-c3ccn(CF)c(=O)c3)cc2O)nn1)[C@H]1C[C@]2(C)CC[C@](C)(C1)N2 [compound 193]; < 3 nM
COc1cc(-c2ccc(-c3ccc(N(C)[C@H]4C[C@]5(C)CC[C@](C)(C4)N5)nn3)c(O)c2)cnn1 [compound 191]; < 1 nM

Query block: Lab request: please report IC50 under test system A-673 cells for CN(c1ccc(-c2ccc(-c3cn[nH]c3)cc2O)nn1)[C@@H]1C[C@H]2CCC[C@@H](C1)N2 [compound 160]
Result block: ≤ 5 nM

---

- System: FOXM1^A2 mRNA and FOXM1^BC mRNA
- assay_protocol: Splicing assay (FOXM1), qPCR of isoform mRNAs
- Format: cell-based
- condition_context: FoxM1 A mRNA increase (exon excluded); 0.1-1000 nM, 24 hours; read-out: Splice EC50 (nM), FoxM1 A mRNA increase (exon excluded)
- Protocol: Various cells lines were treated with the SMSMs described herein. RNA was then isolated, cDNA synthesized, qPCR performed and the levels of various mRNA targets of the SMSMs were determined. In some instances, RNA was isolated, cDNA synthesized, qPCR performed and the levels of mRNA isoforms in the various cell samples were determined. […] The determined isoform 2and isoform 1quantities were then be used to determine the isoform 2: […] at the various compound concentrations. […]
value_type: EC50

CN(c1ccc(-c2ccc(-n3ccnn3)cc2O)nn1)[C@@H]1C[C@H]2CC[C@@H](C1)N2; < 10 nM
[2H]C([2H])([2H])n1ccc(-c2ccc(-c3ccc(N(C)C4CC5CCCC(C4)N5)nn3)c(O)c2)cc1=O (stereo not shown); > 1000 nM
Cc1ncc(-c2ccc(-c3ccc(N(C)[C@@H]4C[C@H]5CC[C@@H](C4)N5)nn3)c(O)c2)o1; < 10 nM

Kindly review the next compound as well.
Query block: Sample CN(c1ccc(-c2ccc(-n3cccn3)cc2O)nn1)[C@@H]1C[C@H]2CC[C@@H](C1)N2 — what was its EC50?
Result block: < 10 nM

---

- Tested on: FOXM1^A2 mRNA and FOXM1^BC mRNA
- assay_protocol: Splicing assay (FOXM1), qPCR of isoform mRNAs
- Type: cell-based
- condition_context: Homo sapiens, K562, 24 h, K-562 cells; 24 hours; table does not say EC50 or IC50; read-out: FOXM1
value_type: IC50

CN(c1ccc(-c2ccc(-c3ccn(C)c(=O)c3)cc2O)nn1)[C@H]1C[C@]2(C)CC[C@](C)(C1)N2; 11 to 100 nM
COc1cc(-c2ccc(-c3ccc(N(C)[C@H]4C[C@]5(C)CC[C@](C)(C4)N5)nn3)c(O)c2)cnn1; 1 to 10 nM
CN(c1ccc(-c2cc(F)c(-c3cn[nH]c3)cc2O)nn1)[C@H]1C[C@]2(C)CC[C@](C)(C1)N2; 1 to 10 nM

Below: the item to evaluate.
Query block: Param item = CN(c1ccc(-c2ccc(-c3cn[nH]c3)cc2O)nn1)[C@H]1C[C@]2(C)CC[C@](C)(C1)N2 ; retrieve measured IC50.
Result block: 11 to 100 nM

---

Exercise: for every item that follows, state its recorded EC50.
- System: FOXM1^A2 mRNA and FOXM1^BC mRNA
- assay_protocol: Splicing assay (FOXM1), qPCR of isoform mRNAs
- Assay type: cell-based
- condition_context: read-out: Splice EC50 (nM) FoxM1 A mRNA increase (exon excluded)
- Description: Various cells lines were treated with the SMSMs described herein. RNA was then isolated, cDNA synthesized, qPCR performed and the levels of various mRNA targets of the SMSMs were determined. In some instances, RNA was isolated, cDNA synthesized, qPCR performed and the levels of mRNA isoforms in the various cell samples were determined. […] The determined isoform 2and isoform 1quantities were then be used to determine the isoform 2: […] at the various compound concentrations. […]

Please review the following examples before continuing.
CN(c1ccc(-c2ccc(-c3cnn(C(F)(F)F)c3)cc2O)nn1)[C@H]1C[C@]2(C)CC[C@](C)(C1)N2; 10 to 100 nM
CN(c1cnc(-c2ccc(-c3cn[nH]c3)cc2O)cn1)C1CC(C)(C)NC(C)(C)C1; 101 to 250 nM
Oc1cc(-c2cn[nH]c2)ccc1-c1ccc(O[C@@H]2C[C@H]3COC[C@@H](C2)N3)nn1; 251 to 500 nM
Cc1cc(-c2ccc(N(C)[C@H]3C[C@]4(C)CC[C@](C)(C3)N4)nn2)c(O)cc1-c1cn[nH]c1; < 10 nM
CN(c1ccc(-c2ccc(-c3cn[nH]c3)cc2O)nn1)[C@@H]1C[C@H]2COC[C@@H](C1)N2; 10 to 100 nM

Parameters: items (list). Returns: EC50 for each item.
1. CN(c1ccc(-c2ccc(-c3cn[nH]c3)cc2O)nn1)[C@H]1[C@@H]2CC[C@H]1CNC2
2. CN(c1ccc(-c2ccc(-c3cn[nH]c3)cc2O)nn1)[C@H]1C[C@H]2CC[C@@H](C1)N2

Result block:
> 1000 nM
> 1000 nM

---

- Tested on: A-673 cells
- assay_protocol: Cell viability, crystal violet staining
- Assay type: cell-based
- condition_context: Homo sapiens, A673, cell viability, read-out: A-673 IC50 (nM) Cell viability
value_type: IC50

CN(c1ccc(-c2ccc(-c3ccnc(OC(F)F)c3)cc2O)nn1)[C@H]1C[C@]2(C)CC[C@](C)(C1)N2; 501 to 1000 nM
CN(c1ccc(-c2ccc(-c3ccn(C)c(=O)c3)cc2O)nn1)[C@H]1C[C@]2(C)CC[C@](C)(C1)N2; < 10 nM
Cc1cc(-c2ccc(N(C)[C@H]3C[C@]4(C)CC[C@](C)(C3)N4)nn2)c(O)cc1-c1ccn(C)c(=O)c1; 251 to 500 nM

Answer for every listed entry: what is its IC50? The entries follow.
1. CN(c1ccc(-c2ccc(-c3cc(O)nc(F)c3)cc2O)nn1)[C@H]1C[C@]2(C)CC[C@](C)(C1)N2
2. CN(c1ccc(-c2ccc(-c3cnn(C)c(=O)c3)cc2O)nn1)[C@H]1C[C@]2(C)CC[C@](C)(C1)N2
3. Cc1cc(-c2ccc(N(C)[C@H]3C[C@]4(C)CC[C@](C)(C3)N4)nn2)c(O)cc1-c1cn[nH]c1
4. CN(c1ccc(-c2ccc(-c3cn[nH]c3)cc2O)nn1)[C@H]1[C@@H]2CNC[C@@H]21
5. [2H]C([2H])([2H])Oc1cc(-c2cc(O)c(-c3ccc(N(C)[C@H]4C[C@]5(C)CC[C@](C)(C4)N5)nn3)cc2F)cc(F)n1
6. CN(c1ccc(-c2cc(F)c(-c3cn[nH]c3)cc2O)nn1)[C@@H]1C[C@H]2CC[C@@H](C1)N2

Result block:
101 to 250 nM
< 10 nM
10 to 100 nM
> 1000 nM
> 1000 nM
< 10 nM
